- TARGET OF ASSAY: T1, human Granzyme B (human, UniProt P10144 21-247)
- T1 construct: Captured on a Series S Streptavidin chip for SPR; also called hGranzyme B; GzmB
- T1 sequence (P10144 21-247 limits assumed): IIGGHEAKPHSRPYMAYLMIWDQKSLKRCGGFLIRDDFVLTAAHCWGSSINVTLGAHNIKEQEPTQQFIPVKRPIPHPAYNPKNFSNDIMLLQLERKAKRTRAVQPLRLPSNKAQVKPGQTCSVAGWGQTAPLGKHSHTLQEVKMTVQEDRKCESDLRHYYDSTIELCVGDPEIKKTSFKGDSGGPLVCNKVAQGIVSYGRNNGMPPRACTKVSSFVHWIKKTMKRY
- ASSAY SUMMARY: SPR, Biacore 8k+, hGranzyme B captured on SA chip, single cycle kinetics, 1:1 model
Bridge positions count the residues as written; N and C are the ends. Square brackets hold non-standard residues; d marks the D form. Pip = O=C(O)[C@@H]1CCCCN1; Aze = O=C(O)[C@@H]1CCN1
Can you tell me Kd for the items I'm about to list?
Give bare numbers, in nM.

Reference set, count: 4
BINDER: {CH2CO}-FNFEDQSKDTWQPCG-NH2 (thioether N-14; SMILES C[C@@H](O)[C@@H]1NC(=O)[C@H](CC(=O)O)NC(=O)[C@H](CCCCN)NC(=O)[C@H](CO)NC(=O)[C@H](CCC(N)=O)NC(=O)[C@H](CC(=O)O)NC(=O)[C@H](CCC(=O)O)NC(=O)[C@H](Cc2ccccc2)NC(=O)[C@H](CC(N)=O)NC(=O)[C@H](Cc2ccccc2)NC(=O)CSC[C@@H](C(=O)NCC(N)=O)NC(=O)[C@@H]2CCCN2C(=O)[C@H](CCC(N)=O)NC(=O)[C@H](Cc2c[nH]c3ccccc23)NC1=O) [Compound 33a]
Kd / nM: 33.9

BINDER: {CH2CO}-FNFEDQSPDTWQ[Pip]CG-NH2 (thioether N-14, also called 71aa) [Compound 71a]
Kd / nM: 19.6

BINDER: {CH2CO}-FNFEDQS[Aze]DTWQPCG-NH2 (thioether N-14) [Compound 75a]
Kd / nM: 28.3

BINDER: {CH2CO}-FNFEDQSPRTWQPCG-NH2 (thioether N-14; SMILES C[C@@H](O)[C@@H]1NC(=O)[C@H](CCCNC(=N)N)NC(=O)[C@@H]2CCCN2C(=O)[C@H](CO)NC(=O)[C@H](CCC(N)=O)NC(=O)[C@H](CC(=O)O)NC(=O)[C@H](CCC(=O)O)NC(=O)[C@H](Cc2ccccc2)NC(=O)[C@H](CC(N)=O)NC(=O)[C@H](Cc2ccccc2)NC(=O)CSC[C@@H](C(=O)NCC(N)=O)NC(=O)[C@@H]2CCCN2C(=O)[C@H](CCC(N)=O)NC(=O)[C@H](Cc2c[nH]c3ccccc23)NC1=O) [Compound 46a]
Kd / nM: 3.8

Q: What measured Kd goes with {CH2CO}-FNFEDQSPHTWQPCG-NH2 (thioether N-14; SMILES C[C@@H](O)[C@@H]1NC(=O)[C@H](Cc2c[nH]cn2)NC(=O)[C@@H]2CCCN2C(=O)[C@H](CO)NC(=O)[C@H](CCC(N)=O)NC(=O)[C@H](CC(=O)O)NC(=O)[C@H](CCC(=O)O)NC(=O)[C@H](Cc2ccccc2)NC(=O)[C@H](CC(N)=O)NC(=O)[C@H](Cc2ccccc2)NC(=O)CSC[C@@H](C(=O)NCC(N)=O)NC(=O)[C@@H]2CCCN2C(=O)[C@H](CCC(N)=O)NC(=O)[C@H](Cc2c[nH]c3ccccc23)NC1=O) [Compound 60a] ?
Ans: 6.1

Source listed as patent US20260207798A1.
